B1: HEEH_KT_rd6_3632 (parent)
chain: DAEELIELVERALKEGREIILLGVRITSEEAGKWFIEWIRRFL

# Variants of: B1
# Assay Procedure: folding stability dG (cDNA display proteolysis); higher = more stable
# Particulars: PBS, room temperature
Measured Property: folding stability dG (kcal/mol)

>>> print(df.to_string())
    changes  readout_units  value
 0     R25P       kcal/mol   3.14
 1     L21Y       kcal/mol   3.28
 2      E3F       kcal/mol   4.06
 3      D1I       kcal/mol    4.2
 4     K33D       kcal/mol   3.38
 5     R40K       kcal/mol   3.69
 6     G23I       kcal/mol   3.87
 7     G23Y       kcal/mol   3.91
 8     K33S       kcal/mol   3.39
 9     L21W       kcal/mol   3.33
10     E15M       kcal/mol   3.68
11     A31W       kcal/mol   4.01
12     L43E       kcal/mol   2.91
13      L5G       kcal/mol   2.88
14     V24K       kcal/mol   3.05
15     K33N       kcal/mol   3.52
16     T27K       kcal/mol   3.59
17     A12Y       kcal/mol   3.33
18     F42W       kcal/mol   4.07
19     E15T       kcal/mol   3.48
20      V9H       kcal/mol   2.85
21     K14E       kcal/mol   3.54
22     S28V       kcal/mol   3.57
23     G32Y       kcal/mol   3.85
24     S28Q       kcal/mol   3.13
25     F42N       kcal/mol   3.19
26     L43A       kcal/mol   3.35
27     V24F       kcal/mol    3.9
28      V9R       kcal/mol   2.87
29     E37R       kcal/mol   3.62
30     G23F       kcal/mol   3.93
31     E29D       kcal/mol   3.67
32     G32F       kcal/mol   4.17
33     K33F       kcal/mol   3.48
34     V24E       kcal/mol    2.9
35      I6C       kcal/mol   3.95
36      D1P       kcal/mol   3.89
37     R11E       kcal/mol   3.38
38     W38M       kcal/mol   3.32
39     K14S       kcal/mol   3.62
40     R25F       kcal/mol   3.79
41     I20D       kcal/mol   2.84
42     W34M       kcal/mol   3.61
43      A2S       kcal/mol   3.42
44      L5H       kcal/mol   2.83
45      I6H       kcal/mol   3.29
46     L13C       kcal/mol   4.96
